# study_system: Glycogen synthase kinase-3 beta (Homo sapiens) (UniProt P49841)
# Sequence (P49841 whole entry, looked up, the tested form may be a part): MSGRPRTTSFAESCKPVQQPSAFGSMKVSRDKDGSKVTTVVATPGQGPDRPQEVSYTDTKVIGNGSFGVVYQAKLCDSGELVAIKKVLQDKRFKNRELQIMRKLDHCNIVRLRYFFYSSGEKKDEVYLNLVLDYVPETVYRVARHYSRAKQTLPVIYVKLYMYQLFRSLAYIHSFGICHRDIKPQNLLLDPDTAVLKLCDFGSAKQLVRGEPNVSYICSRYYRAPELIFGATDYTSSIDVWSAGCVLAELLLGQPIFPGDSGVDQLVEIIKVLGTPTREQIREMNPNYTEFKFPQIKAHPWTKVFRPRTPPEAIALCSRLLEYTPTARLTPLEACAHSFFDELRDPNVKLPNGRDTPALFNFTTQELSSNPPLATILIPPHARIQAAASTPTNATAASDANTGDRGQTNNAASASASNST
# method: Inhibition of GSK3-beta expressed in H10075 yeast assessed as growth inhibition at 5 ug/disk after 72 hrs at 37 degreeC by disc diffusion method
assay_metric: inhibition zone (IZ) (mm)
Number only, in mm; omit the unit.

Please fill in: inhibition zone (IZ) reported for C[C@H]1C[C@H](C)C(=O)[C@@H]([C@H](O)CC2CC(=O)NC(=O)C2)C1 = 15

The compound CC/C=C(\C)C(=O)CC(O)CC1CC(=O)NC(=O)C1 (centres undefined) showed inhibition zone (IZ) equal to 30

The recorded inhibition zone (IZ) for C[C@@H]1C[C@@H]([C@H](O)CC2CC(=O)NC(=O)C2)C(=O)[C@@H](C)C1 is 48

Just so you know, measured inhibition zone (IZ) for Cn1sc(=O)n(Cc2ccccc2)c1=O came out at 9

----------
# study_system: Glycogen synthase kinase-3 beta (Homo sapiens)
# method: Inhibition of GSK3-beta expressed in H10075 yeast assessed as growth inhibition at 10 ug/disk after 72 hrs at 24 degreeC by disc diffusion method
assay_metric: inhibition zone (IZ)

The reported value for C[C@H]1C[C@H](C)C(=O)[C@@H]([C@H](O)CC2CC(=O)NC(=O)C2)C1 in terms of inhibition zone (IZ) is 16 mm

Entry C[C@@H]1C[C@@H]([C@H](O)CC2CC(=O)NC(=O)C2)C(=O)[C@@H](C)C1 — recorded inhibition zone (IZ) = 33 mm

# inhibition zone (IZ) (molecule: Cn1sc(=O)n(Cc2ccccc2)c1=O ) is 9 mm

----------
# study_system: Glycogen synthase kinase-3 beta (Homo sapiens) (UniProt P49841)
# method: Inhibition of GSK3-beta expressed in H10075 yeast assessed as growth inhibition at 2.5 ug/disk after 72 hrs at 24 degreeC by disc diffusion method
Active and inactive are the calls of the source. The rule behind the calls is not given here.
assay_metric: inhibition zone (IZ)

>>> value_reported("C[C@@H]1C[C@@H]([C@H](O)CC2CC(=O)NC(=O)C2)C(=O)[C@@H](C)C1")
"25 mm"
>>> value_reported("Cn1sc(=O)n(Cc2ccccc2)c1=O")
"inactive"
>>> value_reported("C[C@H]1C[C@H](C)C(=O)[C@@H]([C@H](O)CC2CC(=O)NC(=O)C2)C1")
"inactive"
>>> value_reported("CC/C=C(\\C)C(=O)CC(O)CC1CC(=O)NC(=O)C1 (centres undefined)")
"inactive"

----------
# study_system: Glycogen synthase kinase-3 beta (Homo sapiens) (UniProt P49841)
# method: Inhibition of GSK3-beta expressed in H10075 yeast assessed as growth inhibition at 20 ug/disk after 72 hrs at 25 degreeC by disc diffusion method
assay_metric: inhibition zone (IZ) (mm)
Answer with a number only, understood to be in mm.

The compound C[C@@H]1C[C@@H]([C@H](O)CC2CC(=O)NC(=O)C2)C(=O)[C@@H](C)C1 showed inhibition zone (IZ) equal to 36

Sample CC/C=C(\C)C(=O)CC(O)CC1CC(=O)NC(=O)C1 (centres undefined) ; inhibition zone (IZ) observed: 10

For this compound ( C[C@H]1C[C@H](C)C(=O)[C@@H]([C@H](O)CC2CC(=O)NC(=O)C2)C1 ), measured inhibition zone (IZ) is 22

Lookup result for Cn1sc(=O)n(Cc2ccccc2)c1=O ; measured inhibition zone (IZ): 10

----------
# study_system: Glycogen synthase kinase-3 beta (Homo sapiens)
# method: Inhibition of GSK3-beta expressed in H10075 yeast assessed as growth inhibition at 5 ug/disk after 72 hrs at 24 degreeC by disc diffusion method
assay_metric: inhibition zone (IZ)

The compound C[C@@H]1C[C@@H]([C@H](O)CC2CC(=O)NC(=O)C2)C(=O)[C@@H](C)C1 , when measured on Glycogen synthase kinase-3 beta (Homo sapiens), yielded inhibition zone (IZ) of 30 mm

Given the compound Cn1sc(=O)n(Cc2ccccc2)c1=O and test system Glycogen synthase kinase-3 beta (Homo sapiens), the measured inhibition zone (IZ) is 8 mm

Simply: C[C@H]1C[C@H](C)C(=O)[C@@H]([C@H](O)CC2CC(=O)NC(=O)C2)C1 , Glycogen synthase kinase-3 beta (Homo sapiens), inhibition zone (IZ) = 12 mm
